Origin of values: PubChem BioAssay (NCI)

System: CCRF-CEM leukemia
Assay: NCI tumour cell line growth inhibition, 48 h; in the data active = GI50 below about 0.43 µM; inactive = the rest
Outcomes: TRUE for active, FALSE for inactive

[
  {
    "compound": "CCCCCCCCCCCCC(O)c1ccco1 (stereo not given)",
    "classLabel": "FALSE"
  },
  {
    "compound": "CNCCCNc1nc2ccccc2c2c(=O)c3cc(OC)ccc3sc12",
    "classLabel": "FALSE"
  },
  {
    "compound": "CC(=O)OC12C=C(C)C(C(C)C1)C1C(=O)N(CCN3CCCCC3)C(=O)C12 (stereo not given)",
    "classLabel": "FALSE"
  },
  {
    "compound": "COc1ccccc1S(=O)(=O)Nc1ccc2c3c(cc(CCC(=O)NCCCCNc4cccc5c4C(=O)N(C4CCC(=O)NC4=O)C5=O)cc13)C(=O)N2C (stereo not given)",
    "classLabel": "TRUE"
  },
  {
    "compound": "COc1cc(OC)cc(C2C3=C(COC3=O)Nc3cc(OC)ccc32)c1 (stereo not given)",
    "classLabel": "TRUE"
  }
]
